Entry source: patent US4205163A

Tested on: Staphylococcus aureus FDA-209P
EXPERIMENT: antimicrobial activity, broth dilution method
Type: cell-based
CONDITION: Staphylococcus aureus, FDA209P, Staphylococcus aureus FDA-209P; broth dilution; read-out: minimum inhibitory concentration (MIC)
REPORTED_PROPERTY: MIC (µg/mL)
// note: answer is a bare numeric in µg/mL

What measured MIC goes with CCC1OC(=O)CC(O)C(C)C(OC2OC(C)C(OC3CC(C)(O)C(OC(=O)CCc4ccccc4)C(C)O3)C(N(C)C)C2O)C(CC=O)CC(C)C(=O)C=CC(C)=CC1COC1OC(C)C(O)C(OC)C1OC (stereo not shown) ?
0.78

Would you kindly share the measured MIC for CCC1OC(=O)CC(O)C(C)C(OC2OC(C)C(OC3CC(C)(O)C(O)C(C)O3)C(N(C)C)C2OC(C)=O)C(CC=O)CC(C)C(=O)C=CC(C)=CC1COC1OC(C)C(OC(=O)COc2ccccc2)C(OC)C1OC (stereo not shown) ?
0.78

Which MIC reading was recorded for the molecule CCC1OC(=O)CC(O)C(C)C(OC2OC(C)C(OC3CC(C)(O)C(OC(=O)CCSc4ccccc4)C(C)O3)C(N(C)C)C2O)C(CC=O)CC(C)C(=O)C=CC(C)=CC1COC1OC(C)C(O)C(OC)C1OC (stereo not shown) ?
0.78

Given the molecule CCCCCCCC(=O)OC1C(C)OC(OC2C(C)OC(OC3C(CC=O)CC(C)C(=O)C=CC(C)=CC(COC4OC(C)C(O)C(OC)C4OC)C(CC)OC(=O)CC(O)C3C)C(O)C2N(C)C)CC1(C)O (stereo not shown) , what is its reported MIC?
0.78

Any idea what its MIC is? The molecule is CCC1OC(=O)CC(OC(C)=O)C(C)C(OC2OC(C)C(OC3CC(C)(O)C(OC(=O)C(OC(C)=O)c4ccccc4)C(C)O3)C(N(C)C)C2O)C(CC=O)CC(C)C(=O)C=CC(C)=CC1COC1OC(C)C(O)C(OC)C1OC (stereo not shown)
1.56

Bench note: what MIC did CCC1OC(=O)CC(OC(C)=O)C(C)C(OC2OC(C)C(OC3CC(C)(O)C(OC(=O)C(Cc4ccccc4)OC(C)=O)C(C)O3)C(N(C)C)C2O)C(CC=O)CC(C)C(=O)C=CC(C)=CC1COC1OC(C)C(O)C(OC)C1OC (stereo not shown) show?
0.78

I'd like to know its MIC. The molecule in question is CCC(C(=O)OC1C(C)OC(OC2C(C)OC(OC3C(CC=O)CC(C)C(=O)C=CC(C)=CC(COC4OC(C)C(O)C(OC)C4OC)C(CC)OC(=O)CC(O)C3C)C(O)C2N(C)C)CC1(C)O)c1ccccc1 (stereo not shown)
0.39

Recorded MIC of CCC1OC(=O)CC(O)C(C)C(OC2OC(C)C(OC3CC(C)(O)C(OC(=O)CSc4cccc(C)c4)C(C)O3)C(N(C)C)C2O)C(CC=O)CC(C)C(=O)C=CC(C)=CC1COC1OC(C)C(O)C(OC)C1OC (stereo not shown) , please.
0.78

Bench note: what MIC did CCC1OC(=O)CC(OC(C)=O)C(C)C(OC2OC(C)C(OC3CC(C)(O)C(OC(=O)C(OC(C)=O)c4ccc(OC(C)=O)cc4)C(C)O3)C(N(C)C)C2O)C(CC=O)CC(C)C(=O)C=CC(C)=CC1COC1OC(C)C(O)C(OC)C1OC (stereo not shown) show?
0.78

// returns reported MIC for input CCC1OC(=O)CC(O)C(C)C(OC2OC(C)C(OC3CC(C)(O)C(OC(=O)CCC(C)C)C(C)O3)C(N(C)C)C2O)C(CC=O)CC(C)C(=O)C=CC(C)=CC1COC1OC(C)C(O)C(OC)C1OC (stereo not shown)
0.78

So what's the measured MIC for this one? CCC1OC(=O)CC(OC(C)=O)C(C)C(OC2OC(C)C(OC3CC(C)(O)C(O)C(C)O3)C(N(C)C)C2OC(C)=O)C(CC=O)CC(C)C(=O)C=CC(C)=CC1COC1OC(C)C(OC(=O)CCl)C(OC)C1OC (stereo not shown)
1.56

Fill in: MIC of CCC1OC(=O)CC(OC(C)=O)C(C)C(OC2OC(C)C(OC3CC(C)(O)C(OC(=O)CSc4ccncc4)C(C)O3)C(N(C)C)C2O)C(CC=O)CC(C)C(=O)C=CC(C)=CC1COC1OC(C)C(O)C(OC)C1OC (stereo not shown) is ___
0.39

// MIC lookup, key: CCC1OC(=O)CC(O)C(C)C(OC2OC(C)C(OC3CC(C)(O)C(OC(=O)CSC4CCCCC4)C(C)O3)C(N(C)C)C2O)C(CC=O)CC(C)C(=O)C=CC(C)=CC1COC1OC(C)C(O)C(OC)C1OC (stereo not shown)
0.78

Need MIC of CCC1OC(=O)CC(OC(C)=O)C(C)C(OC2OC(C)C(OC3CC(C)(O)C(OC(=O)CN(C(C)=O)c4ccccc4)C(C)O3)C(N(C)C)C2O)C(CC=O)CC(C)C(=O)C=CC(C)=CC1COC1OC(C)C(O)C(OC)C1OC (stereo not shown) , thanks.
0.78

Which MIC is listed for CCCC(C)C(=O)OC1C(C)OC(OC2C(C)OC(OC3C(CC=O)CC(C)C(=O)C=CC(C)=CC(COC4OC(C)C(O)C(OC)C4OC)C(CC)OC(=O)CC(O)C3C)C(O)C2N(C)C)CC1(C)O (stereo not shown) ?
1.56

Requested field: MIC. Item: CCC1OC(=O)CC(O)C(C)C(OC2OC(C)C(OC3CC(C)(O)C(OC(=O)COc4ccc5ccccc5c4)C(C)O3)C(N(C)C)C2O)C(CC=O)CC(C)C(=O)C=CC(C)=CC1COC1OC(C)C(O)C(OC)C1OC (stereo not shown)
0.78
